Test: yeast display, Sf9 membrane polyspecificity reagent, FACS + sequencing; frameworks hold sequencing errors
value-type: polyreactivity (PSR sort gate)

item_sequence=QVQLVESGGGLVQAGGSLRLSCAASGSIFDLYAMGWYRQAPGTERELVADISIADSTNYADSVKGRFTISRDNAKNTVYLQMNSLKPEDTAVYYCNADVWWYSYEYDYWGQGTQVTVSS test_value="low polyreactivity"
item_sequence=QVQLVESGGGLVQAGGSLRLTCAASGFIFNHNAMGWYRQAPGKERELVAAISSGGRTYYADSVKGRFTISRDNAKNTVYLQMNSLKPEDTAVYYCAKDTKYSSQYGKYGYWGQGTQVTVSS test_value="low polyreactivity"
item_sequence=QVQLVESGGGLVQAGGSLRLSCAASGFTFAYYAMGWYRQAPGKERELVASISYNGGITNYADSVKGRFTISRDNAKNTVYLQMNSLKPEDTAVYYCAAGVFFFTFDYWGQGTQVTVSS test_value="low polyreactivity"
item_sequence=QVQLVESGGGLVQAGGSLRLSCAASGNTFYGYAMGWYRQAPGKERELVASITLSGDSTYYADSVKGRFTISRDNAKNTVYLQMNSLKPEDTAVYSCAGVYTYPLGYYHYTYDYWGQGTQVTVSS test_value="low polyreactivity"

With those in mind, consider the next sequence.
Request: Quick one: polyreactivity (PSR sort gate) of QVQLVESGGGLVQAGGSLRLSCAASGLIFRYYAMGWYRQAPGKERELVAAISKSGGRTYYADSVKGRFTISRDNAKNTVYLQMNSLKPEDTAVYYCATGVRGYVGWSSALYYEYDYWGQGTQVTVSS ?
Result: high polyreactivity
